Just for reference, patent US20170189529A1 is where these values come from.

- Target or system: recombinant HA of influenza A H1 A/California/09 (influenza A virus H1 A/California/09)
- Assay: recombinant HA ELISA (AttoPhos fluorescence, mean of triplicates)
Observable: fold reactivity over background (fold over background)
Just the number.

Ask: Specify reported fold reactivity over background (fold over background) for the binder shown: TRL845 (antibody, V domains shown) VH: QVQLVQSGGDLVQPGGSLRLSCAASGFTFSRYSMNWVRQAPGMGLEWVAYISDTSRTIYYADSVKGRFTISRDNAKNSLYLQMKSLRDEDTAVYYCARDPDTPFVRAFDSWGQGTLVTVSS VL: DIVLTQSPSFLSASVGDRVTITCRASQLISSYFAWYQQKPGKPPKLLIYAASTLQSGVPSRFSGSGSGTQFSLTISSLQPEDFATYYCQQLNSYPPITFGQGTRLEIKR
Reply: 1.4
